Biological target: T1, His-tagged CEACAM1 (human, UniProt P13688 35-428)
T1 construct: 45 kDa SPR analyte; also called CEACAM1-HIS; CEACAM1 analyte
T1 sequence: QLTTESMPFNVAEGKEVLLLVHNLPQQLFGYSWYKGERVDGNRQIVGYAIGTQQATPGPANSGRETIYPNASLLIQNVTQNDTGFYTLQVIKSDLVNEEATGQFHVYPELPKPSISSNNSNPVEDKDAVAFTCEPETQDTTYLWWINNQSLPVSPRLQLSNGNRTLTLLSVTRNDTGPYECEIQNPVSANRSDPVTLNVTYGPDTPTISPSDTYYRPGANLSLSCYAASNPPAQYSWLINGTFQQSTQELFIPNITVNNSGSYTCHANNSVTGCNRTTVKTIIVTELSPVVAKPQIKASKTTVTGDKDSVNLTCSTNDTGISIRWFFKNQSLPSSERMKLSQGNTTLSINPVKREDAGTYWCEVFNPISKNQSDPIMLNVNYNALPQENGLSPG
Test: SPR single-cycle, supernatant IgG captured
For each of the binders below, state its relative KD to parent.
Give bare numbers.

Please review the following examples before continuing.
| binder | observed result |
| --- | --- |
| CP08D11/Vκ8 S29A (antibody, IgG4, V domains shown, IgG4 (S241P), kappa) VH: EVQLLESGGGLVQPGGSLRLSCAASGYSFSAHGMSWVRQAPGKGLEWVATISSGGTYTYYPDSVKGRFTISRDNSKNTLYLQMNSLKAEDTAMYYCARHDFDYDAAWFAYWGQGTLVTVSS VL: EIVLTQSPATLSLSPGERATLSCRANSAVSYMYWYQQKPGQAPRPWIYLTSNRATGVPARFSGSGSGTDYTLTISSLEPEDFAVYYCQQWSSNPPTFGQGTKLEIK | 0.3 |
| CP08H03/Vκ8 S29A (antibody, IgG4, V domains shown, IgG4 (S241P), kappa; also called CP08_H03/Parent VL; CP08_H03/Parental) VH: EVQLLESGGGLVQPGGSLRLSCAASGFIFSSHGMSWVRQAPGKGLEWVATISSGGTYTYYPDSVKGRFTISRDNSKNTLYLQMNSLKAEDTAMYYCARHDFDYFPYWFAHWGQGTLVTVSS VL: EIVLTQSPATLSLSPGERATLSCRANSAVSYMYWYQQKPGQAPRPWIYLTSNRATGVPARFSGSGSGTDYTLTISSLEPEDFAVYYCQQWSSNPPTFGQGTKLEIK | 13.7 |

Turning now to a further binder:
# return recorded relative KD to parent for entry CP08A06/Vκ8 S29A (antibody, IgG4, V domains shown, IgG4 (S241P), kappa) VH: EVQLLESGGGLVQPGGSLRLSCAASGYSFSSHGMSWVRQAPGKGLEWVATISSGGTYTYYPDSVKGRFTISRDNSKNTLYLQMNSLKAEDTAMYYCARHDFDYDAAWFAYWGQGTLVTVSS VL: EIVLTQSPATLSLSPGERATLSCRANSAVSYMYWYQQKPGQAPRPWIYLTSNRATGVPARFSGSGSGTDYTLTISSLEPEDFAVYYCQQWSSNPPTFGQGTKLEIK
1.3
